Give measured Phage binding ELISA CD28 scFv signal in presence of CD28 for each item. Keep answers brief.
target: T1, Anti-CD28 scFv (VH-linker 1-VL) (biotinylated (site not stated)); experiment: phage ELISA, scFv wells pre-incubated with soluble CD28 (competitor); background signal 0.062
T1 construct: biotinylated and captured on neutravidin coated plates in the phage ELISA
T1 sequence (scFv, as listed by the source): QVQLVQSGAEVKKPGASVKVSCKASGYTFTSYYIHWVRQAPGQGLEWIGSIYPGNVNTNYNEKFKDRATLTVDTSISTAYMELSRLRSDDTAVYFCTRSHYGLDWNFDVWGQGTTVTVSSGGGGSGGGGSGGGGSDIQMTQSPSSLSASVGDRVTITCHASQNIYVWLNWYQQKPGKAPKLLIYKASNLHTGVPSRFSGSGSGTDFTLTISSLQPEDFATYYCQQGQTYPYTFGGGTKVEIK
// no unit string in output, number only

Please report Phage binding ELISA CD28 scFv signal in presence of CD28 for the following binder: MDWCPRFLWSECFN [Phage-95]
0.227

Please report Phage binding ELISA CD28 scFv signal in presence of CD28 for the following binder: MAWCPRDKWSECFS [Phage-41]
0.147

Please report Phage binding ELISA CD28 scFv signal in presence of CD28 for the following binder: MDWCPRDLWVHCFA [Phage-29]
0.179

Please report Phage binding ELISA CD28 scFv signal in presence of CD28 for the following binder: MDWCPIDLWHLCFY [Phage-90]
0.488
